- System: HOP-62 NSCLC
- test name: NCI-60 one-dose screen, 48 h
- measurement parameters: 10 µM unless noted
The panel holds about 83,000 compounds, 20% with a hit somewhere; the sample as a whole holds those more often. Calls of active or inactive are those of the source. How the source made its calls: active means growth percent below 10; inactive means the rest.
Classes used: 1 (yes) for active, 0 (no) for inactive

{"item smiles": "COc1cc2c(c(OC)c1OC)-c1ccc(OC)c(=O)cc1[C@@H](NC(=O)CCl)CC2", "target entity": "HOP-62 NSCLC", "class name": "0 (no)"}
{"item smiles": "CCc1ccc(Oc2cn[nH]c2-c2ccc(OCCc3ccc(F)cc3)cc2O)cc1", "target entity": "HOP-62 NSCLC", "class name": "0 (no)"}
{"item smiles": "COc1ccc(-c2csc(NC(=O)CSc3nc(-c4ccccc4)cc(=O)[nH]3)n2)cc1", "target entity": "HOP-62 NSCLC", "class name": "0 (no)"}
{"item smiles": "COc1cc(/C=C/C(=O)c2cccc(Nc3nc(Nc4ccccc4)nc(Nc4ccccc4)n3)c2)cc(OC)c1OC", "target entity": "HOP-62 NSCLC", "class name": "0 (no)"}
{"item smiles": "CCOC(=O)c1cc(C(=O)c2cc(OC)c(OC)c(OC)c2)n2ccc(-c3ccncc3)cc12", "target entity": "HOP-62 NSCLC", "class name": "0 (no)"}
{"item smiles": "OCc1cccc(-c2ccc3ncc(-c4nc(NC5CC5)ncc4F)n3c2)c1", "target entity": "HOP-62 NSCLC", "class name": "1 (yes)"}
